System: MX-1 breast xenograft, nude mice, tumor weight T/C
Assay: NCI In Vivo Anticancer Drug Screen. Data for tumor model Human Mammary Carcinoma MX-1 Xenograft (intrarenal inoculation) in NU/NU Swiss (nude) mice
Conditions: endpoint: mean tumor weight change; dose: 50.0 mg/kg/injection; schedule: Q04DX003 (sc); vehicle: water; higher = larger tumour
Results filed as inconclusive are left out.
Hi there, I'd appreciate the recorded T/C for every entry that follows.

Some compounds with known T/C results, for comparison:
[[record]]
compound = "COc1cccc2c1C(=O)c1c(O)c3c(c(O)c1C2=O)CC(O)(/C(C)=N/NC(=O)CCCCC(=O)N/N=C(\\C)C1(O)Cc2c(O)c4c(c(O)c2C(OC2CC(N)C(O)C(C)O2)C1)C(=O)c1c(OC)cccc1C4=O)CC3OC1CC(N)C(O)C(C)O1 (stereo unspecified)"
observed_measurement = "62 % of control"

[[record]]
compound = "CNC(=O)c1cccc2c(Nc3ccc(NS(C)(=O)=O)cc3OC)c3cccc(C)c3nc12"
observed_measurement = "111 % of control"

[[record]]
compound = "NC(=O)/C=C/c1c[nH]c2nccnc12"
observed_measurement = "46 % of control"

[[record]]
compound = "C1CC[N-]CC1.[Cl][Pt+2][Cl].[NH-]C1CC1"
observed_measurement = "11 % of control"

[[record]]
compound = "Nc1n[n+](-c2ccc(Cl)cc2)no1"
observed_measurement = "102 % of control"


Here is another compound to look at.
In: Tell me measured T/C for "CNc1nc(N(C)C)nc(N(C)C)n1" please.
Out: 34 % of control

====

Tested on: MX-1 breast xenograft, nude mice, tumor weight T/C
Assay: NCI In Vivo Anticancer Drug Screen. Data for tumor model Human Mammary Carcinoma MX-1 Xenograft (intrarenal inoculation) in NU/NU Swiss (nude) mice
Conditions: endpoint: mean tumor weight change; dose: 50.0 mg/kg/injection; schedule: Q04DX003 (sc); vehicle: Klucel (hydroxypropylcellulose) (HPC); higher = larger tumour
Records with an inconclusive call do not appear.
quantity measured: T/C

Some molecules with known T/C results, for comparison:
[[record]]
molecule = "C/C(=N\\N=C(/[Se])N1CC2CCC(CC2)C1)c1ccccn1"
quantity_measured = "T/C"
observed_measurement = "110 % of control"

[[record]]
molecule = "O=C(Nc1ccc(N=C=S)cc1Cl)c1cc(Cl)cc(Cl)c1O"
quantity_measured = "T/C"
observed_measurement = "79 % of control"

[[record]]
molecule = "Ic1ncnc2c1ncn2C1CCCO1 (configuration not stated)"
quantity_measured = "T/C"
observed_measurement = "84 % of control"

[[record]]
molecule = "COc1ccc2c(c1)CCC(c1ccccc1)=C2c1ccc(OCCN2CCCC2)cc1"
quantity_measured = "T/C"
observed_measurement = "72 % of control"

[[record]]
molecule = "COC1=C(NC(C)=O)C(=O)c2nc(-c3nc(C(=O)O)c(C)c(-c4ccc(OC)c(OC)c4O)c3N)ccc2C1=O"
quantity_measured = "T/C"
observed_measurement = "118 % of control"


// each listed molecule needs a value for T/C
1. CNC(=O)OCc1c(COC(=O)NC)c(C)n(-c2ccc(OC)cc2)c1C
2. CC(=O)NC(CCc1ccc(Cl)c(Cl)c1)c1cccc(O)c(=O)c1 (configuration not stated)
3. O=C(O)/C=C/C(=O)Nc1ccc(Cl)c(Cl)c1
4. Nc1nc(N)c2cc(CNc3ccc(C(=O)NC(CC(=O)O)CC(=O)O)cc3)ccc2n1
5. CC1=C2CC(C)(C)/C=C\C(=O)/C(C)=C\C3=C[C@H](C)C[C@]3(O2)C1=O
6. CSc1cc(C)[o+]c(C)c1
7. O=C(C#Cc1ccccc1)c1ccccc1

Out:
110 % of control
95 % of control
111 % of control
96 % of control
82 % of control
68 % of control
76 % of control
